Every entry's value here was drawn from the supplement of paper PMC9170038.

tested on: MS2 coat protein; assay: apparent KD of MS2 coat protein; designed switch direction (-1 OFF switch, 1 ON switch): -1; higher = weaker reporter binding; settings: input ligand: microRNA oligo, concentration not stated
We use 20 nM as the dividing line for apparent KD of MS2 coat protein: on or above the line is MET, below is NOT MET.

As a guide, the following entries are already answered.
sequence-input	label-class
UACAUGAGGAUCACCCAUGUUUUGUCGUGUAUGGUAUUUAUCUAGGAUAUCAAUUUGUUUAAUUAUGAGAAGGAGAAUAUUAAU [JMF's solution 70] (Eterna round: R96, puzzle: Exclusion NG 3)	MET
UUUAAUGGAAUUAAGAUCACAUGAGGAUCACCCAUGUAUAUAUAGGAUAUCAGCUCGAUUAGAGCUGAGAAGGAUAUAUACAUA [ExNG3/6-B1] (Eterna round: R96, puzzle: Exclusion NG 3)	MET
CUAGGGCGCAUUUAAACGCCCUAACAUGAGGAUCACCCAUGUCAGGAUAUGUAGGCAAAGACCCUACAGAAGGGACAUGUCCUA [Lainceso] (Eterna round: R96, puzzle: Exclusion NG 3)	MET
CGGGCCCGGGCAGGAUAUGCGGCGGCCCGGGCCGGUGGGCCCGGGCCGACAUGAGGAUCACCCAUGUAGAAGGGCCCGGGCCCG [low energy, MS2 in another position, A 14%] (Eterna round: R96, puzzle: Exclusion NG 2)	NOT MET
ACAUGUUGCGCAGGAUAUGGGACACAUGAGGAUCACCCAUGUGGUUACAUGUCUUACCAAGCGUCCCAGAAGGGUGUGAACAUG [Ex NG2 #32] (Eterna round: R96, puzzle: Exclusion NG 2)	NOT MET

## Task hey, is apparent KD of MS2 coat protein for this one >= 20 nM? AAAUGAAAGGCAGGAUAUCGUACUGAUCUUUGUCGAGAAGGGCCAGGGUCCCUCGGCUACAUGAGGAUCACCCAUGUUAAAAGA [Onabele] (Eterna round: R96, puzzle: Exclusion NG 1)
## Result MET

## Task Could you please find out whether UACAUGAGGAUCACCCAUGUUUUGUCGUGUAUGGUAUUUAUCUAGGAUAUCAUUUUAUUAAGUUAUGAGAAGGAGAAUAUUAAU [JMF's solution 90] (Eterna round: R96, puzzle: Exclusion NG 3) has apparent KD of MS2 coat protein that meets 20 nM or exceeds it?
## Result MET

## Task Given ACAUGUCAUCGAGGAUAUUGUACACAUGAGGAUCACCCAUGUACUCGGUUGCUCUAGCAUGAGUUCGAGAAGGCGAUGUACAUU [Ex NG2 #81] (Eterna round: R96, puzzle: Exclusion NG 2) , state whether its apparent KD of MS2 coat protein is at least 20 nM.
## Result MET

## Task Hello, I need to know if UCGCUCCGUGUAGGAUAUCGUUGUAUUCUGCGGCGAGAAGGACAUGAGGAUCACCCAUGUAUGUUAUUAUCACGCGUGGCGCAA [Design 67] (Eterna round: R96, puzzle: Exclusion NG 1) has measured apparent KD of MS2 coat protein not below 20 nM. Thanks!
## Result NOT MET

## Task Entry AUGUUACUCUGAGGAUAUUGUUUAUUCUUCUCACAUGAGGAUCACCCAUGUUUCCAUGUUAACCGCAAGAAGGCAGUUUUGUUU [JR_ExcNG2_Sub029] (Eterna round: R96, puzzle: Exclusion NG 2) : is its apparent KD of MS2 coat protein no less than 20 nM?
## Result MET

## Task Form field: apparent KD of MS2 coat protein at least 20 nM? Entry: CCGGUUGGCGCAGGAUAUACAUGAGGAUCACCCAUGUUCAUGAGCAUCAGCCAUGAGUUUUUGUUGUAGAAGGGUGGCCCGGCC (Eterna round: R96, puzzle: Exclusion NG 2)
## Result NOT MET
